- Tested system: T1, Bud14, P27637
- T1 sequence (P27637 247-328, looked up): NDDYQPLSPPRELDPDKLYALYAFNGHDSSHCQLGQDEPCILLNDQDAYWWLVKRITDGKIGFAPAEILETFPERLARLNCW
- Measurement notes: SPOT array
- Condition: median of control spots 956
Measured property: SPOT intensity
Please reply with the number alone, leaving off any unit.

KKEKKPPKIPKKVYT :: 0
RPVPRRPSQPLNTLS :: 11
GAGERPRLVPRPINV :: 0
LKPPIGRPPKFPKSP :: 0
APPLPPTAPPPPSLP :: 0
RSKRLFPVRPMATAH :: 6
IAPIPMPKPNPTHIS :: 0
KRKRRLPVSEDTNTK :: 22
HAPPLPPTAPPPPSL :: 0
ANNQGPPNLPARDKS :: 0

-- ask Check the records and state SPOT intensity for `RSLRKRPTSPSISGS`
-- reply 22

-- ask Please look at this binder and report its SPOT intensity: `PIVPSSPAPPLPLSG`
-- reply 0

-- ask Give the value of SPOT intensity reported for the following: `KRNRLKILLPFLEQS`
-- reply 8

-- ask Please report SPOT intensity for the following binder: `RFKRHRLEFPFNESE`
-- reply 4

-- ask Return the recorded SPOT intensity value; entry: `PLRRTVMSLPGNHDI`
-- reply 2

From: paper PMC2756588
